// data source = PubChem BioAssay (NCI)

Tested on: HS 578T breast
assay-procedure: NCI tumour cell line growth inhibition, 48 h
assay-readout: GI50

Determine from records and report GI50 for `O=C(O)c1ccc(-c2ccc(C(=O)O)cc2I)c(I)c1` > 100 µM

Answer with the recorded GI50 for the molecule listed here: `C#CCOc1ccc2ncnc(Nc3ccc(NC(=O)CCl)cc3)c2c1` 5.61 µM

Provide GI50 value for the following molecule: `CCN(Cc1nc2cc(C(F)(F)F)ccc2nc1-c1ccccc1)c1ccc(OC)c(OC)c1` 11.4 µM

Identify GI50 associated with the molecule `CCCCCCNC(=O)Oc1ccc(/C(=C(\C)c2ccccc2)c2ccc(OCCN3CCCCC3)cc2)cc1` 2.71 µM

* * *

Would you kindly list TGI for each of these compounds?
Test system: SF-539 CNS
assay-procedure: NCI tumour cell line growth inhibition, 48 h

Fill in: TGI on SF-539 CNS, entry `Cc1[nH]n(-c2nc3c(c(=O)[nH]2)CCC3)c(=O)c1CCO` > 100 µM

Under SF-539 CNS, report TGI for `C=C1CC2(OC1=O)c1ccccc1C=Cc1ccccc12` 6.72 µM

Report value only: TGI, SF-539 CNS, `NC(=O)C(=CN1C(=O)CC(=O)NC1=S)C(N)=O` > 100 µM

Please respond with reported TGI (system SF-539 CNS) for `CN(C)c1nc(N(C)C)n2nc(-c3ccccc3[N+](=O)[O-])nc2n1` . > 100 µM

Name the recorded TGI of `COc1ccc(/C=C2\N=C(c3ccccc3)N(Nc3nnc(NN4C(=O)/C(=C/c5ccc(OC)cc5)N=C4c4ccccc4)c4ccccc34)C2=O)cc1` , assay system SF-539 CNS. > 100 µM

* * *

Give TGI for every item shown.
Tested on: SNB-19 CNS
assay-procedure: NCI tumour cell line growth inhibition, 48 h

State, in one line, measured TGI of `O=C(CCC(=O)N/N=C/c1ccccc1O)N/N=C/c1ccccc1O` > 100 µM

Output measured TGI for this item: `CCOC(=O)c1c(C)n(CC(C)C)c2c1cc1oc(=O)c(=O)n3cnc2c13` > 50 µM

Specify reported TGI for the molecule shown: `CN(C)[C@@H]1C(=O)C(C(=O)NCNCCCC(=O)O)=C(O)[C@@]2(O)C(=O)C3=C(O)c4c(O)cccc4[C@@](C)(O)[C@H]3C[C@@H]12` > 100 µM

Query TGI for `COc1ccc(/C(Cl)=C(\C=O)c2ccc(OC)c(OC)c2)cc1OC` > 100 µM

Please list TGI recorded for the molecule `CCOC(OCC)c1ccc(/C=C/c2cc(OC)c(OC)c(OC)c2)cc1` > 100 µM

Specify TGI for CS(=O)c1ccc(-c2nc(-c3ccc(F)cc3)c(-c3ccncc3)[nH]2)cc1 (stereo not given) and stop. > 100 µM

State its TGI for this molecule: `COc1ccc(Nc2nc(N)c(C(=O)c3ccc(OC)cc3)s2)cc1` > 49.5 µM

Give the measured TGI for CC1=CC2(O)OC3(CC2=C(C)C)C(C)CCC13 (stereo not given) > 100 µM

Specify TGI for `O=C(c1ccco1)c1c(C(F)(F)F)nc2cc(C(F)(F)F)ccc2[n+]1[O-]` and stop. > 100 µM

Please report the measured TGI for `O=C1OC(c2ccccc2)=N/C1=C\c1c(O)cc(O)cc1O` > 100 µM

Answer with the recorded TGI for the molecule listed here: `CS(=O)(=O)OCCN(CCOS(C)(=O)=O)c1ccc(C=Nc2ccc3oc(=O)ccc3c2)cc1` 80.7 µM

Look up TGI of `NC(=O)C(=CN1C(=O)CC(=O)NC1=S)C(N)=O` and report it. > 100 µM

State, in one line, measured TGI of OCC(O)COc1c(Cl)ccc(Cl)c1Cl (stereo not given) > 100 µM

Hello, please tell me recorded TGI for this one: `NC(N)=N/N=C/c1cccc(Cl)c1Cl` 11.8 µM

Quote TGI reported for `Cc1cc(S(=O)(=O)Nc2nc(N)nc(N3CCOCC3)n2)c(SCC(=O)O)cc1Cl` please. > 10 µM

Retrieve TGI measured for O=C1c2ccccc2C(=O)c2c(NCCNC(=O)C3CCCN3)ccc(NCCNC(=O)C3CCCN3)c21 (stereo not given) and print it. > 100 µM

Give TGI for the following molecule: `O=C(NCCCNC(=O)OCc1ccc2c(Br)cc(Br)c(O)c2n1)OCc1ccc2c(Br)cc(Br)c(O)c2n1` > 100 µM

Indicate its recorded TGI; the molecule in question is `COc1cc2nc(-c3ccc(-n4cncc4-c4ccc(N)cc4)cc3)sc2c(OC)c1OC` 51.1 µM

Find the measured TGI of CCCCCCCCCCCCOC1C(C(COC2OC(C(O)CN3CCCCC3)C3OC(C)(C)OC23)NC(=O)Nc2ccccc2)OC2OC(C)(C)OC21 (stereo not given) and report it. 44.5 µM

Tell me measured TGI for `Cc1[nH]nc2c1N=C(c1ccccc1F)c1cc(C#N)ccc1N2` please. 13.9 µM
